tested on: VV; assay: microbe, parasite or virus in culture; format: cell-based, vaccinia virus; conditions: Orthopoxvirus vaccinia, BSC-1, read-out: VV EC50
Label Fulfilled when EC50 is strictly below 30 µM; otherwise label Not fulfilled.

>>> class_name("CCC(C(=O)Nc1sc(C(=O)N(CC)CC)c(C)c1C#N)c1ccccc1 (centres unmarked)")
"Not fulfilled"
>>> class_name("CCC(C(=O)Nc1sc(C(N)=O)c(C)c1C(=O)OC)c1ccccc1 (single isomer, unassigned) [Compound 29]")
"Fulfilled"
>>> class_name("COC(=O)c1c(NC(=O)C2CCc3ccccc32)sc(C(N)=O)c1C (centres unmarked)")
"Fulfilled"
>>> class_name("CCC(C(=O)Nc1sc(C(N)=O)c(C)c1C(=O)OC)c1ccc(F)cc1 (centres unmarked)")
"Fulfilled"
>>> class_name("CCC(C(=O)Nc1sc(C)c(C)c1C(=O)OC)c1ccccc1 (centres unmarked)")
"Not fulfilled"
>>> class_name("Cc1c(C(N)=O)sc(NC(=O)C2CCCC2)c1C#N")
"Not fulfilled"
>>> class_name("CCC(C(=O)Nc1sc(C(N)=O)c(C)c1C#N)c1ccccc1 (centres unmarked)")
"Fulfilled"
>>> class_name("Cc1nsc(NC(=O)C2CCc3ccccc32)c1C#N (centres unmarked)")
"Fulfilled"
>>> class_name("CCC(C(=O)Nc1sccc1C(N)=O)c1ccccc1 (centres unmarked)")
"Not fulfilled"
>>> class_name("CCC(C(=O)Nc1nc(-c2ccccc2)cs1)c1ccccc1 (centres unmarked)")
"Fulfilled"
>>> class_name("Cc1c(C(N)=O)sc(N(C(=O)C2CCCc3ccccc32)C(=O)C2CCCc3ccccc32)c1C#N (centres unmarked)")
"Fulfilled"
>>> class_name("COC(=O)c1c(NC(=O)C(Cc2ccccc2)N2C(=O)c3ccccc3C2=O)sc(C(N)=O)c1C (centres unmarked)")
"Not fulfilled"
>>> class_name("CC[C@H](C(=O)Nc1sc(C(N)=O)c(C)c1C(=O)OC)c1ccccc1")
"Fulfilled"
>>> class_name("O=C(NCc1ccc(Cl)cc1)c1nnsc1NC(=O)N1CCN(c2ccccn2)CC1")
"Fulfilled"
>>> class_name("CCOC(=O)c1c(NC(=O)C(CC)c2ccccc2)sc(C(N)=O)c1C (centres unmarked)")
"Fulfilled"
>>> class_name("Cc1c(C(N)=O)sc(NC(=O)C2CCc3cc(Cl)ccc32)c1C#N (centres unmarked)")
"Not fulfilled"
>>> class_name("COc1ccc(N2CCN(C(=O)Nc3snnc3C(=O)NCc3ccc(Cl)cc3)CC2)cc1")
"Not fulfilled"
>>> class_name("CCC(C(=O)Nc1sc(C(N)=O)c(C)c1C(=O)OC)c1ccccc1 (centres unmarked) [Compound 1]")
"Fulfilled"
>>> class_name("CCC(C(=O)N(C(=O)C(CC)c1ccccc1)c1sc(C)c(C)c1C#N)c1ccccc1 (centres unmarked)")
"Fulfilled"

---

# maps each entry to its IC50
target: E9/A20/D4 proteins (molluscum mD4) (Molluscum contagiosum virus, UniProt Q98260); experiment: biochemical
Sequence (Q98260 1-226): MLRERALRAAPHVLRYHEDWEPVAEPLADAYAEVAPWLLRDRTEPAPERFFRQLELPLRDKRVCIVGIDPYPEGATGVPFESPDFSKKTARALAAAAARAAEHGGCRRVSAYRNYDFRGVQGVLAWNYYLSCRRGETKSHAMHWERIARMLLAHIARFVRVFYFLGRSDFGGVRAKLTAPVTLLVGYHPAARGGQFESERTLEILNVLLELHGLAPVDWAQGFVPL
OBSERVATION_TYPE: IC50 (µM)

>>> meas_value("O=C(NCc1ccc(F)cc1)c1nnsc1NC(=O)N1CCN(c2ccccn2)CC1")
39
>>> meas_value("O=C(NCc1ccc(F)c(F)c1)c1ccsc1NC(=O)N1CCN(c2ccccn2)CC1")
118
>>> meas_value("CCC(C(=O)Nc1sccc1C(=O)NCc1ccc(F)c(F)c1)c1ccccc1 (stereo not shown)")
128
>>> meas_value("O=C(NCc1ccc(Cl)cc1)c1nnsc1NC(=O)N1CCN(c2ccccn2)CC1")
31.4
